STUDY_TARGET: ovine FcRn complex (ovine) (UniProt Q6QAT4)
Sequence (main, as listed by the source, chain 1 of 2): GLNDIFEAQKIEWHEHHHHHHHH
Sequence (Q6QAT4 other isoform, or with tags, fused parts or gaps, chain 2 of 2): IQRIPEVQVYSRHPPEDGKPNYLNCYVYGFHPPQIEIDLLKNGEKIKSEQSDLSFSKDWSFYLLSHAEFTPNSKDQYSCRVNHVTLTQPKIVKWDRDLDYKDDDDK
ASSAY_REMARKS: SPR (Biacore 8K+), pH 5.9, 25 C; FcRn captured by anti-His, IgG as analyte; 1:1 kinetic model
Assignment: determine reported log10(Kd) for the given binders.
Please be aware that the numbers have been log10-transformed from Kd in nM.

Solved entries:
[in] Need log10(Kd), item Ovine M428Y (antibody, part only; not given: variable domains and light chain, IgG1, not shown: another chain or arm of the molecule) Fc: PELPGGPSVFIFPPKPKDTLTISGTPEVTCVVVDVGQDDPEVQFSWFVDNVEVRTARTKPREEQFNSTFRVVSALPIQHQDWTGGKEFKCKVHNEALPAPIVRTISRTKGQAREPQVYVLAPPQEELSKSTLSVTCLVTGFYPDYIAVEWQKNGQPESEDKYGTTTSQLDADGSYFLYSRLRVDKNSWQEGDTYACVVYHEALHNHYTQKSISKPPGK
[out] 2.22

[in] Need log10(Kd), item Ovine N434Y (antibody, part only; not given: variable domains and light chain, IgG1, not shown: another chain or arm of the molecule) Fc: PELPGGPSVFIFPPKPKDTLTISGTPEVTCVVVDVGQDDPEVQFSWFVDNVEVRTARTKPREEQFNSTFRVVSALPIQHQDWTGGKEFKCKVHNEALPAPIVRTISRTKGQAREPQVYVLAPPQEELSKSTLSVTCLVTGFYPDYIAVEWQKNGQPESEDKYGTTTSQLDADGSYFLYSRLRVDKNSWQEGDTYACVVMHEALHYHYTQKSISKPPGK
[out] 0.78

[in] Need log10(Kd), item Ovine T252Y (antibody, part only; not given: variable domains and light chain, IgG1, not shown: another chain or arm of the molecule) Fc: PELPGGPSVFIFPPKPKDTLYISGTPEVTCVVVDVGQDDPEVQFSWFVDNVEVRTARTKPREEQFNSTFRVVSALPIQHQDWTGGKEFKCKVHNEALPAPIVRTISRTKGQAREPQVYVLAPPQEELSKSTLSVTCLVTGFYPDYIAVEWQKNGQPESEDKYGTTTSQLDADGSYFLYSRLRVDKNSWQEGDTYACVVMHEALHNHYTQKSISKPPGK
[out] 1.63

[in] Need log10(Kd), item Ovine Q309V (antibody, part only; not given: variable domains and light chain, IgG1, not shown: another chain or arm of the molecule) Fc: PELPGGPSVFIFPPKPKDTLTISGTPEVTCVVVDVGQDDPEVQFSWFVDNVEVRTARTKPREEQFNSTFRVVSALPIVHQDWTGGKEFKCKVHNEALPAPIVRTISRTKGQAREPQVYVLAPPQEELSKSTLSVTCLVTGFYPDYIAVEWQKNGQPESEDKYGTTTSQLDADGSYFLYSRLRVDKNSWQEGDTYACVVMHEALHNHYTQKSISKPPGK
[out] 1.90

Note: attention shifts to another entry.
[in] Need log10(Kd), item Ovine Q311V (antibody, part only; not given: variable domains and light chain, IgG1, not shown: another chain or arm of the molecule) Fc: PELPGGPSVFIFPPKPKDTLTISGTPEVTCVVVDVGQDDPEVQFSWFVDNVEVRTARTKPREEQFNSTFRVVSALPIQHVDWTGGKEFKCKVHNEALPAPIVRTISRTKGQAREPQVYVLAPPQEELSKSTLSVTCLVTGFYPDYIAVEWQKNGQPESEDKYGTTTSQLDADGSYFLYSRLRVDKNSWQEGDTYACVVMHEALHNHYTQKSISKPPGK
[out] 1.97

This collection of values is drawn from patent US20220177549A1.
